Test system: U2OS
Test: cell viability relative to DMSO; higher = less toxic
Details: 72 h; 1 nM
Can you tell me cell viability for the items I'm about to list?
Quick reminder: number only, in %, skip the unit.

[ask] Entry CCCCC(=O)OCC(=O)[C@]1(O)Cc2c(O)c3c(c(O)c2[C@@H](O[C@H]2C[C@H](NC(=O)C(F)(F)F)[C@H](O)[C@H](C)O2)C1)C(=O)c1c(OC)cccc1C3=O needs its cell viability filled in; supply it.
[reply] 105

[ask] State its cell viability for this compound: C[C@@H](O)[C@H]1C(=O)N2C(C(=O)O)=C(SCCNC=N)C[C@H]12
[reply] 99.1

[ask] Query cell viability for C=CC(=O)Nc1cccc(Nc2nc(Nc3ccc(N4CCN(C(C)=O)CC4)cc3OC)ncc2C(F)(F)F)c1
[reply] 100

[ask] Name the recorded cell viability of the item CC[C@@H](C)CNCC(=O)N1CCc2sccc2[C@@H]1COc1cccc(C)c1 in your answer.
[reply] 95.5

[ask] Let me know recorded cell viability for COc1cc(Br)c(S(=O)(=O)Nc2ccc(C(F)(F)F)c(O[C@@H]3CCN(C)C3)c2)cc1OC , thanks.
[reply] 105

[ask] Determine its reported cell viability: O=C(C1CCCCC1)N1CC(=O)N2CCc3ccccc3C2C1 (configuration not stated)
[reply] 99

[ask] Identify cell viability associated with the compound CCN(CC)CCOc1ccc2c(c1)C(=O)c1cc(OCCN(CC)CC)ccc1-2
[reply] 103

[ask] Consider the compound Cc1noc(NS(=O)(=O)c2cccc3c(N(C)C)cccc23)c1C and give its recorded cell viability.
[reply] 93.5

[ask] Name the recorded cell viability of the item CN1CC(=O)N=C1NC(=O)Nc1cccc(Cl)c1 in your answer.
[reply] 96.6

[ask] Answer with the recorded cell viability of O=C(NS(=O)(=O)c1ccc(Br)s1)c1ccc(Cl)cc1Cl only.
[reply] 97.2

[ask] Please supply the value of reported cell viability for the item N[C@@H](Cc1c[nH]c2ccccc12)C(=O)O
[reply] 97.2

[ask] Indicate its recorded cell viability; the compound in question is CCN(CC)CCNC(=O)c1cc(Br)c(N)cc1OC [bromopride]
[reply] 101

[ask] Report measured cell viability; entry is COc1cccc(N2CCN(C3=Nc4c(F)cccc4[C@H](CC(=O)O)N3c3cc(C(F)(F)F)ccc3OC)CC2)c1
[reply] 105

[ask] Provide one value: measured cell viability of CCN1CCN(Cc2ccc(-c3cc4c(N[C@H](C)c5ccccc5)ncnc4[nH]3)cc2)CC1
[reply] 98.7

[ask] Return cell viability for the following compound: CC(=O)O[C@]1(C(C)=O)CC[C@H]2[C@@H]3C[C@H](C)C4=CC(=O)C=C[C@]4(C)[C@@]3(F)[C@@H](O)C[C@@]21C [fluorometholone-acetate]
[reply] 105

[ask] Look up and report measured cell viability for this entry: CC(C)(C)NCC(O)c1ccc(O)c(CO)c1 (configuration not stated)
[reply] 101

[ask] Name the recorded cell viability of the compound listed here: CN(C)c1ccccc1CN1CCCN(Cc2ccccc2N(C)C)C1c1ccncc1
[reply] 97.5

* * *

Provide the reported cell viability of each item.
Test system: Caco-2
Experiment: cell viability relative to DMSO; higher = less toxic
Settings: 72 h; 100 nM
The reply should contain only the number, in %.

[ask] Write down cell viability measured for item CCOc1ccc(-c2nc(-c3cccc4c3CCC4NCCO)no2)cc1OCC (stereo not given)
[reply] 102

[ask] Give the value of cell viability reported for the following: Cc1[nH]nc(C(F)(F)F)c1Cc1sc2c(c1C(=O)N1C[C@](C)(O)CO1)c(=O)n(C)c(=O)n2C(C)C
[reply] 74.9

[ask] Note cell viability for the compound shown: Cc1cc(-c2ccc(CC(=O)Nc3ccc(-c4cccnc4)cc3)cc2)ccn1
[reply] 109

[ask] Read off the recorded cell viability for COc1ccccc1OCC(O)CN1CCN(CC(=O)Nc2c(C)cccc2C)CC1 (stereo not given)
[reply] 106

[ask] Specify cell viability for CCCCCCCCN=c1ccn(CCCCCCCCCCn2ccc(=NCCCCCCCC)cc2)cc1 and stop.
[reply] 101
